test system: Cyperus iria; test: Preemergence weed control under flooded paddy conditions, CYPIR (Rice Flatsedge); format: in vivo; conditions: 0.0620 kg/ha; preemergence, flooded paddy; rated three to four weeks after treatment
Binarize CYPIR herbicidal rating at 3; below is true, at or above is false.

[[record]]
compound = "COC(=O)C(C)Oc1cc(C)c(I)cc1-c1nsc2ccc(-n3c(=O)cc(C(F)(F)F)n(C)c3=O)cc12 (stereo not drawn)"
class_label = "true"

[[record]]
compound = "CC(C)N(C(C)C)S(=O)(=O)NC(=O)COc1ccccc1-c1nsc2ccc(-n3c(=O)cc(C(F)(F)F)n(C)c3=O)cc12"
class_label = "true"

[[record]]
compound = "Cn1c(C(F)(F)F)cc(=O)n(-c2ccc3snc(COC(=O)c4ccc([N+](=O)[O-])o4)c3c2)c1=O"
class_label = "false"

[[record]]
compound = "Cn1c(C(F)(F)F)cc(=O)n(-c2ccc3snc(COC(=O)c4ccc(Cl)nc4)c3c2)c1=O"
class_label = "true"

[[record]]
compound = "COC(=O)C(C)(C)c1nsc2ccc(-n3c(=O)cc(C(F)(F)F)n(C)c3=O)cc12"
class_label = "false"

[[record]]
compound = "Cn1c(C(F)(F)F)cc(=O)n(-c2ccc3snc(COCOCc4ccccc4)c3c2)c1=O"
class_label = "false"

[[record]]
compound = "Cn1c(C(F)(F)F)cc(=O)n(-c2ccc3snc(C(C)(C)C(=O)OCc4ccco4)c3c2)c1=O"
class_label = "false"


----------
system: Oryza sativa, (L.) Tebonnet; experiment: Rice tolerance to post-transplant applications under flooded paddy conditions (Example 187), ORYSAT (Rice, Tebonnet); details: 0.0620 kg/ha, rated three to four weeks after treatment
Here the recorded ORYSAT herbicidal rating (rice tolerance) is given for each entry.
assay metric: ORYSAT herbicidal rating (rice tolerance)

[[record]]
compound = "COC(=O)C(C)Oc1ccc(I)cc1-c1nsc2ccc(-n3c(=O)cc(C(F)(F)F)n(C)c3=O)cc12 (centres unmarked) [Example 460]"
assay_system = "Oryza sativa, (L.) Tebonnet"
reported_measurement = 4.0

[[record]]
compound = "Cn1c(C(F)(F)F)cc(=O)n(-c2ccc3snc(C(=O)NS(=O)(=O)/C=C/c4ccccc4)c3c2)c1=O [Example 501]"
assay_system = "Oryza sativa, (L.) Tebonnet"
reported_measurement = 1.0

[[record]]
compound = "Cn1c(C(F)(F)F)cc(=O)n(-c2ccc3snc(C(C)(C)C(N)=O)c3c2)c1=O [Example 509]"
assay_system = "Oryza sativa, (L.) Tebonnet"
reported_measurement = 0.0

[[record]]
compound = "Cc1cccc(CS(=O)(=O)NC(=O)c2nsc3ccc(-n4c(=O)cc(C(F)(F)F)n(C)c4=O)cc23)c1 [Example 483]"
assay_system = "Oryza sativa, (L.) Tebonnet"
reported_measurement = 3.0

[[record]]
compound = "Cn1c(C(F)(F)F)cc(=O)n(-c2ccc3snc(C(=O)NO)c3c2)c1=O [Example 471]"
assay_system = "Oryza sativa, (L.) Tebonnet"
reported_measurement = 3.0

[[record]]
compound = "CN(C)S(=O)(=O)NC(=O)c1nsc2ccc(-n3c(=O)cc(C(F)(F)F)n(C)c3=O)cc12 [Example 507]"
assay_system = "Oryza sativa, (L.) Tebonnet"
reported_measurement = 5.0

[[record]]
compound = "C=CCOc1c(I)cc(C)cc1-c1nsc2ccc(-n3c(=O)cc(C(F)(F)F)n(C)c3=O)cc12 [Example 505]"
assay_system = "Oryza sativa, (L.) Tebonnet"
reported_measurement = 4.0

[[record]]
compound = "Cn1c(C(F)(F)F)cc(=O)n(-c2ccc3snc(C(=O)NS(=O)(=O)Cc4ccc(Cl)cc4)c3c2)c1=O [Example 468]"
assay_system = "Oryza sativa, (L.) Tebonnet"
reported_measurement = 3.0

[[record]]
compound = "COc1ccc(C)cc1-c1nsc2cc(F)c(-n3c(=O)cc(C(F)(F)F)n(C)c3=O)cc12 [Example 462]"
assay_system = "Oryza sativa, (L.) Tebonnet"
reported_measurement = 5.0

[[record]]
compound = "CC(C)NS(=O)(=O)NC(=O)c1nsc2ccc(-n3c(=O)cc(C(F)(F)F)n(C)c3=O)cc12 [Example 508]"
assay_system = "Oryza sativa, (L.) Tebonnet"
reported_measurement = 2.0

[[record]]
compound = "COC(=O)COc1cc(C)ccc1-c1nsc2cc(F)c(-n3c(=O)cc(C(F)(F)F)n(C)c3=O)cc12 [Example 479]"
assay_system = "Oryza sativa, (L.) Tebonnet"
reported_measurement = 5.0

[[record]]
compound = "Cc1ccc(OC(C)(C)C(=O)O)c(-c2nsc3ccc(-n4c(=O)cc(C(F)(F)F)n(C)c4=O)cc23)c1 [Example 515]"
assay_system = "Oryza sativa, (L.) Tebonnet"
reported_measurement = 2.0

[[record]]
compound = "COC(=O)COc1cc(Cl)c(C)cc1-c1nsc2ccc(-n3c(=O)cc(C(F)(F)F)n(C)c3=O)cc12 [Example 493]"
assay_system = "Oryza sativa, (L.) Tebonnet"
reported_measurement = 2.0

[[record]]
compound = "COC(=O)c1nsc2cc(F)c(-n3c(=O)cc(C(F)(F)F)n(C)c3=O)cc12 [Example 513]"
assay_system = "Oryza sativa, (L.) Tebonnet"
reported_measurement = 7.0

[[record]]
compound = "C=CCOC(=O)C(C)(C)c1nsc2ccc(-n3c(=O)cc(C(F)(F)F)n(C)c3=O)cc12 [Example 491]"
assay_system = "Oryza sativa, (L.) Tebonnet"
reported_measurement = 6.5

[[record]]
compound = "CC(C)N(C(C)C)S(=O)(=O)NC(=O)COc1ccccc1-c1nsc2ccc(-n3c(=O)cc(C(F)(F)F)n(C)c3=O)cc12 [Example 512]"
assay_system = "Oryza sativa, (L.) Tebonnet"
reported_measurement = 0.0

[[record]]
compound = "Cn1c(C(F)(F)F)cc(=O)n(-c2ccc3snc(C(=O)NS(=O)(=O)Cc4cccc(Cl)c4)c3c2)c1=O [Example 486]"
assay_system = "Oryza sativa, (L.) Tebonnet"
reported_measurement = 3.0


----------
test system: Oryza sativa, (L.) Tebonnet; test: Rice tolerance to post-transplant applications under flooded paddy conditions (Example 187), ORYSAT (Rice, Tebonnet); details: Rate 0.0620 kg/ha, rated three to four weeks after treatment
As shown below, each of these compounds has a reported ORYSAT herbicidal effect rating value.
assay metric: ORYSAT herbicidal effect rating

[[record]]
compound = "CC(=O)/C=C/c1nsc2ccc(-n3c(=O)cc(C(F)(F)F)n(C)c3=O)cc12"
assay_metric = "ORYSAT herbicidal effect rating"
reported_measurement = 7.0

[[record]]
compound = "Cn1c(C(F)(F)F)cc(=O)n(-c2ccc3snc(COCC(=O)O)c3c2)c1=O"
assay_metric = "ORYSAT herbicidal effect rating"
reported_measurement = 0.0

[[record]]
compound = "Cc1ccc(OCC(=O)NS(=O)(=O)c2c(C)noc2C)c(-c2nsc3ccc(-n4c(=O)cc(C(F)(F)F)n(C)c4=O)cc23)c1"
assay_metric = "ORYSAT herbicidal effect rating"
reported_measurement = 4.0

[[record]]
compound = "Cc1ccc(OCC(=O)OC(C)(C)C)c(-c2noc3ccc(-n4c(=O)cc(C(F)(F)F)n(C)c4=O)c(Cl)c23)c1"
assay_metric = "ORYSAT herbicidal effect rating"
reported_measurement = 0.0

[[record]]
compound = "Cc1ccc(OCC(=O)NS(=O)(=O)c2sc3ccc(Cl)cc3c2C)c(-c2nsc3ccc(-n4c(=O)cc(C(F)(F)F)n(C)c4=O)cc23)c1"
assay_metric = "ORYSAT herbicidal effect rating"
reported_measurement = 0.0

[[record]]
compound = "Cn1c(C(F)(F)F)cc(=O)n(-c2ccc3snc(/C=N/O)c3c2)c1=O"
assay_metric = "ORYSAT herbicidal effect rating"
reported_measurement = 3.0

[[record]]
compound = "C=Cc1nsc2ccc(-n3c(=O)cc(C(F)(F)F)n(C)c3=O)cc12"
assay_metric = "ORYSAT herbicidal effect rating"
reported_measurement = 5.0

[[record]]
compound = "COC(=O)C(C)Oc1ccc(-c2nsc3ccc(-n4c(=O)cc(C(F)(F)F)n(C)c4=O)cc23)cc1 (stereo not drawn)"
assay_metric = "ORYSAT herbicidal effect rating"
reported_measurement = 2.0

[[record]]
compound = "COC(=O)COc1c(-c2nsc3ccc(-n4c(=O)cc(C(F)(F)F)n(C)c4=O)cc23)ccc(C)c1C"
assay_metric = "ORYSAT herbicidal effect rating"
reported_measurement = 4.0

[[record]]
compound = "CC(C)OP(=O)(Cc1nsc2ccc(-n3c(=O)cc(C(F)(F)F)n(C)c3=O)cc12)OC(C)C"
assay_metric = "ORYSAT herbicidal effect rating"
reported_measurement = 0.0

[[record]]
compound = "Cn1c(C(F)(F)F)cc(=O)n(-c2ccc3snc(-c4ccccc4OCC(=O)NS(C)(=O)=O)c3c2)c1=O"
assay_metric = "ORYSAT herbicidal effect rating"
reported_measurement = 4.0

[[record]]
compound = "CO/N=C/c1nsc2ccc(-n3c(=O)cc(C(F)(F)F)n(C)c3=O)cc12"
assay_metric = "ORYSAT herbicidal effect rating"
reported_measurement = 7.0

[[record]]
compound = "CNC.Cn1c(C(F)(F)F)cc(=O)n(-c2ccc3snc(COCC(=O)O)c3c2)c1=O"
assay_metric = "ORYSAT herbicidal effect rating"
reported_measurement = 0.0

[[record]]
compound = "Cn1c(C(F)(F)F)cc(=O)n(-c2ccc3snc(C=C(F)Br)c3c2)c1=O"
assay_metric = "ORYSAT herbicidal effect rating"
reported_measurement = 0.0

[[record]]
compound = "Cn1c(C(F)(F)F)cc(=O)n(-c2ccc3snc(CS(=O)(=O)CC(=O)O)c3c2)c1=O"
assay_metric = "ORYSAT herbicidal effect rating"
reported_measurement = 3.0

[[record]]
compound = "Cc1ccc(OCC(=O)NS(=O)(=O)c2sc(C)nc2C)c(-c2nsc3ccc(-n4c(=O)cc(C(F)(F)F)n(C)c4=O)cc23)c1"
assay_metric = "ORYSAT herbicidal effect rating"
reported_measurement = 0.0

[[record]]
compound = "Cn1c(C(F)(F)F)cc(=O)n(-c2ccc3snc(/C=C/C=O)c3c2)c1=O"
assay_metric = "ORYSAT herbicidal effect rating"
reported_measurement = 0.0

[[record]]
compound = "Cn1c(C(F)(F)F)cc(=O)n(-c2ccc3snc(-c4ccc(OCC(=O)OC(C)(C)C)cc4)c3c2)c1=O"
assay_metric = "ORYSAT herbicidal effect rating"
reported_measurement = 2.0

[[record]]
compound = "COC(=O)C(C)Oc1c(-c2nsc3ccc(-n4c(=O)cc(C(F)(F)F)n(C)c4=O)cc23)ccc(C)c1C (stereo not drawn)"
assay_metric = "ORYSAT herbicidal effect rating"
reported_measurement = 0.0

[[record]]
compound = "Cn1c(C(F)(F)F)cc(=O)n(-c2ccc3snc(-c4ccc(OCC(=O)O)cc4)c3c2)c1=O"
assay_metric = "ORYSAT herbicidal effect rating"
reported_measurement = 2.0

[[record]]
compound = "COC(=O)COCc1nsc2ccc(-n3c(=O)cc(C(F)(F)F)n(C)c3=O)cc12"
assay_metric = "ORYSAT herbicidal effect rating"
reported_measurement = 0.0

[[record]]
compound = "Cn1c(C(F)(F)F)cc(=O)n(-c2ccc3snc(C=C(Br)Br)c3c2)c1=O"
assay_metric = "ORYSAT herbicidal effect rating"
reported_measurement = 0.0

[[record]]
compound = "Cn1c(C(F)(F)F)cc(=O)n(-c2ccc3snc(C(Br)C#N)c3c2)c1=O (stereo not drawn)"
assay_metric = "ORYSAT herbicidal effect rating"
reported_measurement = 0.0

[[record]]
compound = "Cn1c(C(F)(F)F)cc(=O)n(-c2ccc3snc(C(C)(C)C#N)c3c2)c1=O"
assay_metric = "ORYSAT herbicidal effect rating"
reported_measurement = 8.0

[[record]]
compound = "COP(=O)(Cc1nsc2ccc(-n3c(=O)cc(C(F)(F)F)n(C)c3=O)cc12)OC"
assay_metric = "ORYSAT herbicidal effect rating"
reported_measurement = 0.0

[[record]]
compound = "COc1c(-c2nsc3ccc(-n4c(=O)cc(C(F)(F)F)n(C)c4=O)cc23)ccc(C)c1C"
assay_metric = "ORYSAT herbicidal effect rating"
reported_measurement = 3.0

[[record]]
compound = "COC(=O)/C=C/c1nsc2ccc(-n3c(=O)cc(C(F)(F)F)n(C)c3=O)cc12"
assay_metric = "ORYSAT herbicidal effect rating"
reported_measurement = 3.0

